measured.target: CDK2 (Homo sapiens)
Construct: endogenous in cells; host or cells: MKN1 cells
test.method.notes: CDK2 degradation in MKN1 cells (AlphaLISA)
Type: cell-based
assay.conditions: MKN-1, 14 h incubation
property: Dmax

Solved entries (count: 2):
Cc1cc(S(=O)(=O)NC2CCC(CN3CCN(c4ccc(C5CCC(=O)NC5=O)c(Cl)c4)CC3)CC2)ccc1Nc1ncc(C(F)(F)F)c(N2CCC[C@](C)(O)C2)n1 (stereo partly drawn): > 75%
Cc1cc(S(=O)(=O)NC2CCC(CN3CCN(c4ccc([C@@H]5CCC(=O)NC5=O)c(Cl)c4)CC3)CC2)ccc1Nc1ncc(C(F)(F)F)c(N2CCC[C@](C)(O)C2)n1 (single isomer, unassigned): > 75%

The reported Dmax of the molecule Cc1cc(S(=O)(=O)C2CCN(CCN3CCN(c4cccc5c4n(C)c(=O)n5C4CCC(=O)NC4=O)CC3)CC2)ccc1Nc1ncc2c(n1)N(C1CCCC1)C(=O)C21CC1 (stereo not drawn) was > 75%

---

measured.target: CDK2 (Homo sapiens)
Construct: endogenous in cells; host or cells: MKN1 cells
test.method.notes: CDK2 degradation in MKN1 cells (AlphaLISA)
Type: cell-based
assay.conditions: 14 h incubation
Procedure: Degradation of CDK2 in MKN1 cells was measured using AlphaLISA technology (PerkinElmer ALSU-TCDK2-A10K). MKN1 cells were maintained in RPMI1640 medium containing 10% FBS+1× penn/strep. […] Under subdued light, the plates were analyzed on an EnVision Microplate Reader (PerkinElmer Model 2009-0030). […] The data were analyzed using Xlfit (v5.3. 1.3) and the dose-dependent CDK2 degradation data were fit using a four-parameter logistic model to calculate DC50.
property: CDK2 degradation 14 h: Average Dmax %

Cc1cc(S(=O)(=O)C2CC3(CCN(CC4CCN(c5ccc(NC6CCC(=O)NC6=O)cc5)CC4)CC3)C2)ccc1Nc1ncc2cc(Cl)c(=O)n(C3CCCC3)c2n1 (centres unmarked) [I-37]: B (B (>50% -75%))
Cc1cc(S(=O)(=O)NC2CCC(CN3CCN(c4ccc(C5CCC(=O)NC5=O)cc4C)CC3)CC2)ccc1Nc1ncc(C(F)(F)F)c(N2CCCC(C)(O)C2)n1 (centres unmarked) [I-811]: A (A (>75% o))
Cc1cc(S(=O)(=O)N[C@H](C)CO[C@H]2CC[C@H](CN3CCN(c4ccc5c(c4F)n(C)c(=O)n5C4CCC(=O)NC4=O)CC3)CC2)ccc1Nc1ncc2ccc(=O)n(C3CCCC3)c2n1 (some centres unmarked) [I-827]: A (A (>75% o))
CC1(O)CCCN(c2nc(Nc3ccc(S(=O)(=O)NC4CC(CCN5CCN(c6ccc(C7CCC(=O)NC7=O)c(F)c6)CC5)C4)cc3C(F)F)ncc2C(F)(F)F)C1 (centres unmarked) [I-1073]: B (B (>50% -75%))

Consider the additional molecule presented here.
The reported CDK2 degradation 14 h: Average Dmax % of the molecule Cc1cc(S(=O)(=O)NC2CCC(CN3CCN(c4cccc(NC5CCC(=O)NC5=O)c4)CC3)CC2)ccc1Nc1ncc(C(F)(F)F)c(N2CCCC(C)(O)C2)n1 (centres unmarked) [I-1118] was A (A (>75% o))

---

measured.target: CDK2 (Homo sapiens, UniProt P24941)
Construct: endogenous in cells; host or cells: MKN1 cells
test.method.notes: CDK2 degradation in MKN1 cells (AlphaLISA)
Assay type: cell-based
assay.conditions: 14 h incubation
property: CDK2 degradation 14 h: Average Dmax %

Solved entries (count: 5):
Cc1c(Nc2ncc(C(F)(F)F)c(N3CCCC(C)(O)C3)n2)ccc(S(=O)(=O)NC2CCC(CN3CCN(c4ccc(C5CCC(=O)NC5=O)c(F)c4)CC3)CC2)c1F (centres unmarked) [I-1105]: A (A (>75% o))
Cc1cc(S(=O)(=O)C2CCN(CCN3CCN(c4cccc5c4n(C)c(=O)n5C4CCC(=O)NC4=O)CC3)CC2)ccc1Nc1ncc2cc(Cl)c(=O)n(C(C)C)c2n1 (centres unmarked) [I-7]: A (A (>75% o))
Cn1nc(N2CCC(=O)NC2=O)c2ccc(C3CCN(Cc4cccc(S(=O)(=O)N5CCC(Nc6ncc7ccc(=O)n(C8CCCC8)c7n6)CC5)c4)CC3)cc21 [I-968]: A (A (>75% o))
Cc1cc(S(=O)(=O)NC2CC(N3CCN(CC4CCN(c5ccc6c(c5F)n(C)c(=O)n6C5CCC(=O)NC5=O)CC4)CC3)C2)ccc1Nc1ncc2cc(Cl)c(=O)n(C3CCCC3)c2n1 (centres unmarked) [I-832]: A (A (>75% o))
Cc1cc(S(=O)(=O)NCCOCCOCCOCCOCCCc2ccc3c(c2)n(C)c(=O)n3C2CCC(=O)NC2=O)ccc1Nc1ncc2c(C)cc(=O)n(C3CCCC3)c2n1 (centres unmarked) [I-467]: C (C (>25% -50%))

The reported CDK2 degradation 14 h: Average Dmax % of the compound CC1(O)CCCN(c2nc(Nc3ccc(S(=O)(=O)NC4CCC(CN5CCN(c6ccc(C7CCC(=O)NC7=O)c(Cl)c6)CC5)CC4)cc3C(F)F)ncc2C(F)(F)F)C1 (centres unmarked) [I-1104] was A (A (>75% o))

The reported CDK2 degradation 14 h: Average Dmax % of the compound Cc1cc(S(=O)(=O)NCCO[C@H]2CC[C@H](CN3CCC(c4ccc5c(c4)n(C)c(=O)n5C4CCC(=O)NC4=O)CC3)CC2)ccc1Nc1ncc2cc(C(F)F)c(=O)n(C(C)C)c2n1 (some centres unmarked) [I-428] was A (A (>75% o))

The reported CDK2 degradation 14 h: Average Dmax % of the compound Cc1cc(S(=O)(=O)N2CCC(CN3CCN(c4cccc5c4n(C)c(=O)n5C4CCC(=O)NC4=O)CC3)CC2)ccc1Nc1ncc2ccc(=O)n(C3CCCC3)c2n1 (centres unmarked) [I-451] was C (C (>25% -50%))
